Experiment: Cation titration followed by absorbance or fluorescence excitation spectra: Ca²⁺ binding
Details: 0.1 M tetramethylammonium chloride, 1-5 mM tris(hydroxymethyl)aminomethane, high pH; listed as SBFI; read-out: Dissociation constants (Kd) in mM for Ca²⁺
assay-readout: Kd

IN: Tell me the measured Kd of `COc1cc2cc(-c3ccc(C(=O)O)cc3C(=O)O)oc2cc1N1CCOCCOCCN(c2cc3oc(-c4ccc(C(=O)O)cc4C(=O)O)cc3cc2OC)CCOCC1` , please.
OUT: ~38 mM

----------
Experiment: Cation titration followed by absorbance or fluorescence excitation spectra: Li⁺ binding
Conditions: 0.1 M tetramethylammonium chloride, 1-5 mM tris(hydroxymethyl)aminomethane, high pH; read-out: Dissociation constants (Kd) in mM for Li⁺
assay-readout: Kd (mM)
Provide the reading as a plain figure in mM.

IN: Tell me the measured Kd of `COc1cc(NC(C)=O)ccc1N1CCOCCOCCN(c2ccc(NC(C)=O)cc2OC)CCOCC1` , please.
OUT: 72

IN: Try the compound `CC(=O)Nc1ccc(N2CCOCCOCCN(c3ccc(NC(C)=O)c4cccnc34)CCOCC2)c2ncccc12`
OUT: 2.8

IN: Try the compound `O=C(O)CCC(=O)Nc1ccc(N2CCOCCOCCN(c3ccc(NC(=O)CCC(=O)O)c4cc5ccccc5nc34)CCOCC2)c2nc3ccccc3cc12`
OUT: 11.5

IN: Try the compound `CC(=O)Nc1ccc(N2CCOCCOCCOCCOCC2)c2ncccc12`
OUT: 63

----------
Test: Fluorescence excitation/emission spectra and quantum efficiency
Format: physicochemical
Details: no Na⁺; relative to quinine bisulfate in 1 N H₂SO₄ (0.55)
assay-readout: Quantum efficiency -Na⁺

query-smiles	Quantum efficiency -Na⁺
O=C(O)CCC(=O)Nc1ccc(N2CCOCCOCCN(c3ccc(NC(=O)CCC(=O)O)c4cc5ccccc5nc34)CCOCC2)c2nc3ccccc3cc12	<.001
COc1cc2cc(-c3ccc(C(=O)O)c(C(=O)O)c3)oc2cc1N1CCOCCOCCN(c2cc3oc(-c4ccc(C(=O)O)c(C(=O)O)c4)cc3cc2OC)CCOCCOCC1	.0075

We next turn to a different molecule, shown below.
IN: Tell me the measured Quantum efficiency -Na⁺ of `CC(=O)Nc1ccc(N2CCOCCOCCN(c3ccc(NC(C)=O)c4ccc(C)nc34)CCOCC2)c2nc(C)ccc12` , please.
OUT: .01

----------
Experiment: Fluorescence excitation/emission spectra and quantum efficiency
Type: physicochemical
Settings: 100 mM tetramethylammonium chloride, no Na⁺; not corrected for detector sensitivity
assay-readout: Emission maxima -Na⁺ (nanometers)
Provide the reading as a plain figure in nanometers.

Example cases with answers are listed next.
query-smiles	measure-unit	Emission maxima -Na⁺
COc1cc2cc(-c3ccc(C(=O)O)cc3C(=O)O)oc2cc1N1CCOCCOCCN(c2cc3oc(-c4ccc(C(=O)O)cc4C(=O)O)cc3cc2OC)CCOCCOCC1	nanometers	545
CC(=O)Nc1ccc(N2CCOCCOCCN(c3ccc(NC(C)=O)c4ccc(C)nc34)CCOCC2)c2nc(C)ccc12	nanometers	525

We next turn to a different molecule, shown below.
IN: Tell me the measured Emission maxima -Na⁺ of `Cc1ccc2cc(O)cc(N3CCOCCOCCN(c4cc(O)cc5ccc(C)nc45)CCOCC3)c2n1` , please.
OUT: 497

----------
Experiment: Cation titration followed by absorbance or fluorescence excitation spectra: Li⁺ binding
Conditions: 0.1 M tetramethylammonium chloride, 1-5 mM tris(hydroxymethyl)aminomethane, high pH; listed as SBFI; read-out: Dissociation constants (Kd) in mM for Li⁺
Method: • Footnote a: For molecular structures, see Fig. 1. • Footnote b: Except where otherwise noted, these dissociation constants were measured with the chelator dissolved in 0.1 M tetramethylammonium chloride, at a pH held high enough with 1-5 mM tris(hydroxymethyl)aminomethane for protonation to be insignificant. […]
assay-readout: Kd (mM)
Provide the reading as a plain figure in mM.

IN: Tell me the measured Kd of COc1cc2cc(-c3ccc(C(=O)O)cc3C(=O)O)oc2cc1N1CCOCCOCCN(c2cc3oc(-c4ccc(C(=O)O)cc4C(=O)O)cc3cc2OC)CCOCC1 [Compound 2PP] , please.
OUT: 67

----------
Catalogue of molecules with associated Absorbance maxima +Na⁺ (wavelength)
Test: UV absorbance spectra without and with saturating cation
Assay type: physicochemical
Details: enough NaCl added (0.2-1 M) to saturate the Na⁺ binding
Provide the reading as a plain figure in nanometers.

Example cases with answers are listed next.
query-smiles	measure-unit	Absorbance maxima +Na⁺ (wavelength)
COc1ccc(OC)c(N2CCOCCOCCN(c3cc(OC)ccc3OC)CCOCC2)c1	nanometers	291
Cc1ccc2cc(O)cc(N3CCOCCOCCN(c4cc(O)cc5ccc(C)nc45)CCOCC3)c2n1	nanometers	362
COc1cc2cc(-c3ccc(C(=O)O)cc3C(=O)O)oc2cc1N1CCOCCOCCN(c2cc3oc(-c4ccc(C(=O)O)cc4C(=O)O)cc3cc2OC)CCOCC1	nanometers	334
COc1cc2cc(-c3ncc(C(=O)O)o3)oc2cc1N1CCOCCOCCN(c2cc3oc(-c4ncc(C(=O)O)o4)cc3cc2OC)CCOCC1	nanometers	343
COc1cc2cc(-c3ccc(C(=O)O)c(C(=O)O)c3)oc2cc1N1CCOCCOCCN(c2cc3oc(-c4ccc(C(=O)O)c(C(=O)O)c4)cc3cc2OC)CCOCC1	nanometers	334

We next turn to a different molecule, shown below.
IN: Tell me the measured Absorbance maxima +Na⁺ (wavelength) of `Nc1ccc(N2CCOCCOCCOCCOCC2)c(C(=O)O)c1` , please.
OUT: 296

----------
Catalogue of compounds with associated Emission maxima -Na⁺
Test: Fluorescence excitation/emission spectra and quantum efficiency
Type: physicochemical
Conditions: 100 mM tetramethylammonium chloride, no Na⁺; not corrected for detector sensitivity
Provide the reading as a plain figure in nanometers.

Example cases with answers are listed next.
query-smiles	measure-unit	val
COc1cc2cc(-c3ccc(C(=O)O)c(C(=O)O)c3)oc2cc1N1CCOCCOCCN(c2cc3oc(-c4ccc(C(=O)O)c(C(=O)O)c4)cc3cc2OC)CCOCCOCC1	nanometers	518
O=C(O)CCC(=O)Nc1ccc(N2CCOCCOCCN(c3ccc(NC(=O)CCC(=O)O)c4cc5ccccc5nc34)CCOCC2)c2nc3ccccc3cc12	nanometers	480

We next turn to a different compound, shown below.
IN: Tell me the measured Emission maxima -Na⁺ of `COc1cc2cc(-c3ccc(C(=O)O)c(C(=O)O)c3)oc2cc1N1CCOCCOCCN(c2cc3oc(-c4ccc(C(=O)O)c(C(=O)O)c4)cc3cc2OC)CCOCC1` , please.
OUT: 528

----------
Catalogue of compounds with associated Kd
Test: Cation titration followed by absorbance or fluorescence excitation spectra: Ca²⁺ binding
Conditions: 0.1 M tetramethylammonium chloride, 1-5 mM tris(hydroxymethyl)aminomethane, high pH; read-out: Dissociation constants (Kd) in mM for Ca²⁺
Provide the reading as a plain figure in mM.

IN: Tell me the measured Kd of `COc1cc2cc(-c3ccc(C(=O)O)c(C(=O)O)c3)oc2cc1N1CCOCCOCCN(c2cc3oc(-c4ccc(C(=O)O)c(C(=O)O)c4)cc3cc2OC)CCOCC1` , please.
OUT: 40

IN: Try the compound `COc1cc2cc(-c3ccc(C(=O)O)cc3C(=O)O)oc2cc1N1CCOCCOCCN(c2cc3oc(-c4ccc(C(=O)O)cc4C(=O)O)cc3cc2OC)CCOCCOCC1`
OUT: 16

IN: Try the compound `CC(=O)Nc1ccc(N2CCOCCOCCN(c3ccc(NC(C)=O)c4cccnc34)CCOCC2)c2ncccc12`
OUT: 0.075

IN: Try the compound `CC(=O)Nc1ccc(N2CCOCCOCCOCCOCC2)c2ncccc12`
OUT: 10

----------
Assay: Effective Kd for Na⁺ against a K⁺ background
Assay type: binding
Conditions: [Na⁺]+[K⁺] = 280 mM (cytoplasm of marine organisms); read-out: effective Kd for SBFI-Na⁺
assay-readout: Kd (mM)
Provide the reading as a plain figure in mM.

IN: Tell me the measured Kd of `COc1cc2cc(-c3ccc(C(=O)O)cc3C(=O)O)oc2cc1N1CCOCCOCCN(c2cc3oc(-c4ccc(C(=O)O)cc4C(=O)O)cc3cc2OC)CCOCC1` , please.
OUT: 28

----------
Assay: physchem
Conditions: 0.1 m tetramethylammonium chloride
assay-readout: pKa
// keep it numeric: no unit symbol after the value

IN: Tell me the measured pKa of COc1cc(NC(C)=O)ccc1N1CCOCCOCCN(c2ccc(NC(C)=O)cc2OC)CCOCC1 [Compound 2JJ] , please.
OUT: 6.31

IN: Try the compound CC(=O)Nc1ccc(N2CCOCCOCCN(c3ccc(NC(C)=O)c4cccnc34)CCOCC2)c2ncccc12 [Compound 2CC]
OUT: 6.85

IN: Try the compound COc1cc2cc(-c3ccc(C(=O)O)cc3C(=O)O)oc2cc1N1CCOCCOCCN(c2cc3oc(-c4ccc(C(=O)O)cc4C(=O)O)cc3cc2OC)CCOCC1 [Compound 2PP]
OUT: 6.1

IN: Try the compound COc1cc2cc(-c3ccc(C(=O)O)c(C(=O)O)c3)oc2cc1N1CCOCCOCCN(c2cc3oc(-c4ccc(C(=O)O)c(C(=O)O)c4)cc3cc2OC)CCOCC1 [Compound 2NN]
OUT: 6.3
